Listed here are substances together with their documented Inhibition rate of smooth muscle contraction in ileum.
Test system: smooth muscle contraction in ileum
assay overview: Muscle contraction inhibition experiment (acetylcholine-induced smooth muscle contraction in isolated ileum)
Design: species or system SD rats
run parameters: 25 ppm; after acetylcholine; rat ileum; Mean±SD
reported property: Inhibition rate of smooth muscle contraction in ileum

>  <substance>
Ac-Glu-Asp-Tyr-Tyr-Arg-Leu-NH2 (Ac-EDYYRL-NH2) [Acetyl hexapeptide-30, polypeptide in the prior art used as comparison sample, reference compound]

>  <endpoint result>
0.00 ± 2.45%

$$$$
>  <substance>
Ac-Glu-Glu-Met-Gln-Arg-Arg-Ala-Asp-NH2 (Ac-EEMQRRAD-NH2) [Acetyl octapeptide-3, polypeptide in the prior art used as comparison sample, reference compound]

>  <endpoint result>
10.2 ± 1.23%

$$$$
>  <substance>
Ac-Ser-Met-Gly-Ala-Leu-Ala-NH2 (Ac-SMGALA-NH2) [Peptide (8)]

>  <endpoint result>
31.99%

$$$$
>  <substance>
Ac-Val-Lys-Val-Leu-Gln-Trp-NH2 (Ac-VKVLQW-NH2) [Peptide (4)]

>  <endpoint result>
49.78%

$$$$
